Field: EC50. Provide a value for each of the compounds that follow.
# Tested on: GT1a replicon encoding NS5A mutation M28T
# method summary: Transient replication assay, GT1a replicon with NS5A mutation M28T
# Format: cell-based
# recorded conditions: Hepatitis C virus, read-out: EC50 1a M28T
Value expressed in nM; do not type the unit.

State the recorded EC50 for this entry: COC(=O)N[C@H](C(=O)N1[C@H](c2ncc(-c3ccc(-c4ccc(-c5cnc([C@@H]6C[C@@]7(CCCOC7)CN6C(=O)[C@@H](NC(=O)OC)C6C[C@@H](C)O[C@H](C)C6)[nH]5)cc4)cc3)[nH]2)C[C@@H]2CCC[C@@H]21)C(C)C (stereo partly drawn) [Compound 45] 0.04

State the recorded EC50 for this entry: COC(=O)N[C@H](C(=O)N1C[C@]2(CCCOC2)C[C@H]1c1ncc(-c2ccc3c(c2)COc2cc(-c4cnc([C@@H]5C[C@@H]6CCCC[C@@H]6N5C(=O)[C@@H](NC(=O)OC)C(C)C)[nH]4)ccc2-3)[nH]1)C(C)C [Compound 15] 0.01

State the recorded EC50 for this entry: COC(=O)N[C@H](C(=O)N1C[C@@]2(CCCO2)C[C@H]1c1ncc(-c2ccc(-c3ccc4c(ccc5nc([C@@H]6CCCN6C(=O)[C@@H](NC(=O)OC)C(C)C)[nH]c54)c3)cc2)[nH]1)C(C)C [Example 82] 14

State the recorded EC50 for this entry: COC(=O)N[C@H](C(=O)N1C[C@@]2(CCOC2)C[C@H]1c1ncc(-c2ccc(-c3ccc4c(ccc5nc([C@@H]6C[C@]7(CCOC7)CN6C(=O)[C@@H](NC(=O)OC)C(C)C)[nH]c54)c3)cc2)[nH]1)C(C)C [Compound 49] 1

State the recorded EC50 for this entry: COC(=O)N[C@H](C(=O)N1C[C@]2(CCCOC2)C[C@H]1c1ncc(-c2ccc(-c3ccc4c(ccc5nc([C@@H]6C[C@H]7C[C@H]7N6C(=O)[C@@H](NC(=O)OC)C(C)C)[nH]c54)c3)cc2)[nH]1)C(C)C [Compound 18] 0.2

State the recorded EC50 for this entry: COC(=O)N[C@H](C(=O)N1C[C@]2(CCCOC2)C[C@H]1c1ncc(-c2ccc(-c3ccc4c(ccc5nc([C@@H]6CCCN6C(=O)[C@@H](NC(=O)OC)C(C)C)[nH]c54)c3)cc2)[nH]1)C(C)C [Compound 47] 0.2

State the recorded EC50 for this entry: COC(=O)N[C@H](C(=O)N1C[C@]2(CCOC2)C[C@H]1c1ncc(-c2ccc(-c3ccc4c(ccc5nc([C@@H]6CCCN6C(=O)[C@@H](NC(=O)OC)C(C)C)[nH]c54)c3)cc2)[nH]1)C(C)C [Compound 26] 3

State the recorded EC50 for this entry: COC(=O)N[C@H](C(=O)N1C[C@]2(CCCOC2)C[C@H]1c1ncc(-c2ccc(-c3ccc4c(c3)OCc3nc([C@@H]5C[C@@H]6CCCC[C@@H]6N5C(=O)[C@@H](NC(=O)OC)C(C)C)[nH]c3-4)cc2)[nH]1)C(C)C [Compound 42] 0.2

State the recorded EC50 for this entry: COC(=O)N[C@H](C(=O)N1C[C@]2(CCCOC2)C[C@H]1c1ncc(-c2ccc3c(ccc4cc(-c5cnc([C@@H]6C[C@@H]7CCCC[C@@H]7N6C(=O)[C@@H](NC(=O)OC)C(C)C)[nH]5)ccc43)c2)[nH]1)C(C)C [Compound 17] 0.008
